# Protocol Notes: Decomposition kinetics (HNO release) monitored by UV-Vis spectroscopy
# Assay type: physicochemical
# Setup Conditions: ratio of oxygen-dependent to argon decomposition rate, 0.1 M PBS pH 7.4, 37° C.
# Protocol: The decomposition rates of the compounds may be determined by UV-Vis spectroscopy. The decomposition of compounds 1-4 and 6 from Example 1 was monitored by UV-Vis spectroscopy in 0.1 M PBS buffer at pH 7.4 and 37° C. The spectral behavior was isosbestic and the time course fit well to a single exponential. […] Decomposition kinetics for compounds 5, 7-10 of Example 1 are not first-order and thus only approximate half-lives are reported. […]
Measurement Kind: kO2/kAr

Sample records with kO2/kAr:
Molecule | kO2/kAr
O=S(=O)(NO)c1ccccc1Cl [Compound 2, 2-Chloro-N-hydroxybenzenesulfonamide] | 1.06
O=S(=O)(NO)c1cc(Cl)sc1Cl | 2.52
O=S(=O)(NO)c1ccccc1Br [Compound 3, 2-Bromo-N-hydroxybenzenesulfonamide] | 0.55

(A) O=S(=O)(NO)c1ccccc1C(F)(F)F
(B) O=S(=O)(NO)c1ccccc1F [Compound 1, 2-Fluoro-N-hydroxybenzenesulfonamide]
Query: Compare reported kO2/kAr values for A and B . Which is lower? Respond using the label that marks the chosen record.
Response: A
(A: 0.75, B: 5.82)

----------
# Protocol Notes: Decomposition kinetics (HNO release) monitored by UV-Vis spectroscopy
# Type: physicochemical
# Setup Conditions: aerated 0.1 M PBS buffer, pH 7.4, decomposition half-life, aerated 0.1 M PBS buffer, pH 7.4, 37° C.; compounds 5, 7-10 not first-order, approximate half-lives; read-out: t1/2 (air)
Measurement Kind: half-life (min)

Molecule | half-life [min]
O=S(=O)(NO)c1ccccc1Br [Compound 3, 2-Bromo-N-hydroxybenzenesulfonamide] | 0.68

(A) O=S(=O)(NO)c1ccccc1C(F)(F)F [Compound 4]
(B) O=[N+]([O-])c1ccc(S(=O)(=O)NO)cc1 [Compound 10, 4-Nitro-N-hydroxybenzenesulfonamide]
(C) O=S(=O)(NO)c1ccccc1Cl [Compound 2, 2-Chloro-N-hydroxybenzenesulfonamide]
Query: Sort (3 molecules) by half-life: min first. Dear reader, please state the labels in the requested order.
Response: A, C, B
